- System: ACHN renal
- test summary: NCI-60 one-dose screen, 48 h (100 = growth as untreated, 0 = no growth, -100 = all killed)
- run parameters: 10 µM
This is part of a sample that, as a whole, favours compounds with a hit. Of some 83,000 tested, about 20% had one in any assay.
Would you kindly list growth for each of these molecules?
Give bare numbers, in %.

The examples below pair each entry with its known result.
O=C1OCC2=C1C(c1cccc(Cl)c1)c1cc3c(cc1N2CCO)CCC3 (stereo unspecified); 25.5
CN(C)CCN1C(=O)c2cccc3cc(N)cc(c23)C1=O; -30.3
O=C(CSSCC(=O)c1ccc(Cl)cc1)c1ccc(Cl)cc1; 82.1

Record growth per entry; entries follow.
1. CCOC(=O)N1C/C(=C/c2ccc(OC)cc2)C(=O)/C(=C/c2ccc(OC)cc2)C1
2. O=C1OCC2=C1C(c1cccc(Cl)c1)c1cc3c(cc1N2CCO)OCCO3 (stereo unspecified)
3. CCN(CC)CCOc1nc2ccccc2c2c1-c1ccc(OC)cc1C2=O
4. CC/C(=C(/c1ccc(OCCN(C)C)cc1)c1ccc(OC(=O)CCCCCCCCC(=O)c2c(C)[nH]c(/C=C3\N=C(c4ccc[nH]4)C=C3OC)c2C)cc1)c1ccccc1
5. COC(=O)C1=NNC(=S)N(c2cc(C)[nH]n2)C(=O)C1
6. N#CC1=C(Nc2ccccc2Cl)SC(c2ccccc2O)NC1=O (stereo unspecified)
7. COc1ccc(-c2nc3sccn3c2-c2nc3c([nH]2)C(=O)c2ccccc2C3=O)cc1

39.3
30.5
-6.81
87.6
107
97.7
86.4

Record growth per entry; entries follow.
1. O=C(O)c1ccc(P(=O)(O)O)c([N+](=O)[O-])c1
2. O=C(c1ccc(Cl)cc1Cl)N1CCOCC1
3. Cn1c([N+](=O)[O-])cnc1/C=C1\Oc2cc(Cl)ccc2C1=O
4. COc1ccc2c(c1)C(=O)c1c-2c(OCCN(C)C)nc2ccccc12

1: 103; 2: 103; 3: 6.42; 4: 9.68

Record growth per entry; entries follow.
1. Cc1nc2oc3ccccc3c(=O)c2cc1C(=O)NCc1ccccc1
2. CC(=O)c1nc2ccccc2n1CCN1CCN(C)CC1
3. O=C(Nc1ccncc1)C(=O)c1cn(S(=O)(=O)c2ccc(F)cc2)c2ccccc12
4. COc1ccc(-c2nn(-c3cccc(NC(=O)Nc4cccc(C(F)(F)F)c4)c3)cc2-c2ccncc2)cc1Cl
5. O=c1oc2cc(OS(=O)(=O)c3ccccc3)ccc2c2c1CCCCC2

1: 63.3; 2: 78; 3: 57.7; 4: 17.5; 5: 82.2

Record growth per entry; entries follow.
1. CCCCC/C=C/C(=O)CCc1ccc(O)c(OC)c1
2. COc1cc2cc3c(nc2cc1OC)CCN3Cc1ccc(NC(=O)Nc2ccc(F)cc2F)cc1

1. 103
2. 85.2

====

- Tested on: OVCAR-3 ovarian
- test summary: NCI-60 one-dose screen, 48 h (100 = growth as untreated, 0 = no growth, -100 = all killed)
- run parameters: 10 µM
This is part of a sample that, as a whole, favours compounds with a hit. Of some 83,000 tested, about 20% had one in any assay.
# t = growth below 60% (exclusive); f = growth at/above 60%

Solved cases (4 shown):
COc1ccc(-c2nn(-c3cccc(NC(=O)Nc4ccccc4)c3)cc2-c2ccncc2)cc1Cl; t
COc1ccc(Cl)cc1-n1nnc(-c2nc3ccccc3[nH]2)c1N; f
CCCCCCCCCCCCCC[n+]1ccc(C(N)=O)cc1; t
CN1CCC(CNc2cc(C3(C(=O)Nc4cc(C(=O)Nc5ccc(Cl)c(C(F)(F)F)c5)ccc4F)CC3)ncn2)CC1; t

Would you kindly verify if growth of "CCOC(=O)N1C/C(=C/c2ccc(Cl)cc2)C(=O)/C(=C/c2ccc(Cl)cc2)C1" is strictly less than 60%?
t

Would you kindly verify if growth of O=C1C(c2ccccc2)C2C=CC(C2)N1O (stereo not given) is strictly less than 60%?
f

Would you kindly verify if growth of "N#CCCN1C/C(=C/c2ccc(Cl)cc2)C(=O)/C(=C/c2ccc(Cl)cc2)C1" is strictly less than 60%?
t

Would you kindly verify if growth of "COc1cc(-c2cc(C(=O)N3CCN(C(=O)c4ccccc4NCc4cccs4)CC3)nc3cc(-c4ccccc4)nn23)cc(OC)c1OC" is strictly less than 60%?
t

Would you kindly verify if growth of "Cc1cc2c(C)c3cc(C)c(N)cc3nc2cc1N" is strictly less than 60%?
t

====

- Test system: MCF7 breast
- test summary: NCI-60 one-dose screen, 48 h (100 = growth as untreated, 0 = no growth, -100 = all killed)
- run parameters: 10 µM
About 83,000 compounds went through this panel and 20% of them were active in at least one assay; those are over-represented in the sample as a whole.
# TRUE = growth below 20% (exclusive); FALSE = growth at/above 20%

Solved cases (5 shown):
CS(=O)(=O)Nc1cccc(-c2cc(-c3ccccc3Cl)c(C#N)c(N)n2)c1; FALSE
O=C(Nc1nc(-c2ccccc2Cl)cs1)c1cc(-c2ccc(Cl)cc2)nc2ccc(Cl)cc12; TRUE
c1ccc2c(c1)oc1c3cccnc3ccc21; TRUE
C=C(Cl)[C@@](Cl)(CBr)CC[C@@H](Br)C(C)(C)Cl; TRUE
COc1ccc(-c2nn(-c3cccc(NC(=O)c4ccc(Cl)c(Cl)c4)c3)cc2-c2ccncc2)cc1Cl; FALSE

Would you kindly verify if growth of "COc1ccc(-c2nc3sc(-c4ccc(OC)cc4)c(-c4ccc(OC)cc4)n3c2/C=C/c2ccc(C(C)C)cc2)cc1" is strictly less than 20%?
FALSE

Would you kindly verify if growth of "N#Cc1c(C#N)c(SSc2c(C#N)c(C#N)c(N)n2-c2ccccc2)n(-c2ccccc2)c1N" is strictly less than 20%?
FALSE

Would you kindly verify if growth of "Cc1cs/c(=N\NC(=O)c2cc(-c3cc4ccccc4o3)nn2-c2ccccc2)n1-c1ccccc1" is strictly less than 20%?
FALSE

Would you kindly verify if growth of "Nc1c(C(=O)Nc2cccc3ccccc23)sc2nc3c(cc12)C(=O)CCC3" is strictly less than 20%?
TRUE

Would you kindly verify if growth of "CCCCOC(=O)Oc1ccc(C(=O)Oc2ccc(OCC)cc2)cc1" is strictly less than 20%?
FALSE

====

- Test system: LOX IMVI melanoma
- test summary: NCI-60 one-dose screen, 48 h (100 = growth as untreated, 0 = no growth, -100 = all killed)
- run parameters: 10 µM
About 83,000 compounds went through this panel and 20% of them were active in at least one assay; those are over-represented in the sample as a whole.
# t = growth below 80% (exclusive); f = growth at/above 80%

Would you kindly verify if growth of "N=c1nc(N)ncn1-c1ccccc1" is strictly less than 80%?
f

Would you kindly verify if growth of "CCN(CC)CCSCCCNc1c2ccc(Cl)cc2nc2ccc(OC)cc12" is strictly less than 80%?
t

Would you kindly verify if growth of COc1cc(C2CC(c3ccc(Nc4ccnc5cc(Cl)ccc45)cc3)=NN2c2ccc(Cl)cc2)cc(OC)c1OC (stereo unspecified) is strictly less than 80%?
t

Would you kindly verify if growth of "O=C1/C(=C\c2ccc(F)cc2)CN(C(=O)c2ccccc2F)C/C1=C\c1ccc(F)cc1" is strictly less than 80%?
t

Would you kindly verify if growth of "c1ccc2c(c1)oc1c3cccnc3ccc21" is strictly less than 80%?
f

====

- System: NCI-H23 lung
- test summary: NCI-60 one-dose screen, 48 h (100 = growth as untreated, 0 = no growth, -100 = all killed)
- run parameters: 10 µM
The panel holds about 83,000 compounds, 20% with a hit somewhere; the sample as a whole holds those more often.
Would you kindly list growth for each of these compounds?
Give bare numbers, in %.

O=C1OCC2=C1C(c1cccc(Cl)c1)c1cc3c(cc1N2CCO)OCCO3 (configuration not stated); 19.6
Cc1cn(C2CCCCO2)c(=O)nc1NO (configuration not stated); 93.4
COc1cc(Cl)cc(-c2nn(-c3cccc(NC(=O)c4ccc(N5CCOCC5)c(C(F)(F)F)c4)c3)cc2-c2ccncc2)c1; 79
C#Cc1ccc(-n2c(/C=C/c3cc(OC)cc(OC)c3)nc3ncccc3c2=O)cc1; 89
COc1cc(-c2nc(Nc3nc4ccccc4s3)[nH]c(=O)c2C#N)cc(OC)c1O; 105
COc1cc(Nc2ccnc(NCCNc3ccnc4cc(Cl)ccc34)n2)cc(OC)c1; 38.2
CCCCCCCCCCCCC1C/C=C\CCCC(=O)O1 (configuration not stated); 91.1
S=c1[nH]ccn1-c1c(Cl)cccc1Cl; 100

Record growth per entry; entries follow.
1. CC(=O)/C(=C/c1ccccc1)C(=O)CC(C)C
2. Nc1nccc(Nc2ccccc2)n1
3. O=C1NC(=O)c2ncccc21
4. COc1cc(Nc2ccnc(NCCCNc3ccnc4cc(Cl)ccc34)n2)cc(OC)c1

1: 100; 2: 101; 3: 101; 4: 55.8

These measurements were taken from PubChem BioAssay (NCI).
